Below is a list of entries, each paired with its recorded CypB Kd value.
- test_system: cyclophilin B (CypB) (Homo sapiens (Human), UniProt P23284)
- Sequence (P23284 34-216): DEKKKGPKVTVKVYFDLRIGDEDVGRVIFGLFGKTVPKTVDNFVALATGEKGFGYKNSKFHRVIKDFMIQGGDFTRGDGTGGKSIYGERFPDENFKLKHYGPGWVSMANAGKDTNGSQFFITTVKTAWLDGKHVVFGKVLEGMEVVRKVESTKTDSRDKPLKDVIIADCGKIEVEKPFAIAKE
- assay_procedure: Inhibitor binding to cyclophilin proteins by SPR, CypB
- Design: unit not given here
- condition_details: 1:1 binding model
Starred links: 1 amine or outer side, 2 acyl side, 3 side chain; linkers in the order of their positions; H or OH if unused. Non-standard residues stand in square brackets, D forms with d. Residues, ends and D or L forms follow the SMILES beside them. X44 = CC(C)N1CCN(C(=O)COC[C@@H](C)[C@@H](C(=O)[*:2])N(C)[*:1])CC1; X29 = CC(=O)N1CCN(C[C@@H](C)[C@@H](C(=O)[*:2])N(C)[*:1])CC1; X35 = C[C@H](CN1CCC2(CC1)OCCO2)[C@@H](C(=O)[*:2])N(C)[*:1]; X5 = C[C@H](COC(=O)N1CCN(C)CC1)[C@@H](C(=O)[*:2])N(C)[*:1]; X19 = COCCN1CCN(C[C@H](C)[C@@H](C(=O)[*:2])N(C)[*:1])CC1; X71 = COC1CN(CC[C@@H](C)[C@@H](C(=O)[*:2])N(C)[*:1])C1; MeBmt = C/C=C/C[C@@H](C)[C@@H](O)[C@H](NC)C(=O)O; NMeVal(4-OMe,3S) = CN[C@H](C(=O)O)[C@H](C)COC; X2 = COCC[C@@H](C)[C@@H](C(=O)[*:2])N(C)[*:1]; NMeL = CN[C@@H](CC(C)C)C(=O)O; NMeV = CN[C@H](C(=O)O)C(C)C; dNMeS = CN[C@H](CO)C(=O)O; dNMeA = CN[C@H](C)C(=O)O; Abu = CC[C@H](N)C(=O)O
Answer field: number only, no words.

Some solved cases for reference:
* CCCC[C@@H](C)[C@@H](O)[C@H]1C(=O)N[C@@H](CC)C(=O)N(C)[C@H](C)C(=O)N(C)[C@@H]([C@H](C)COCCN2CCOCC2)C(=O)N[C@@H](C(C)C)C(=O)N(C)[C@@H](CC(C)C)C(=O)N[C@@H](C)C(=O)N[C@H](C)C(=O)N(C)[C@@H](CC(C)C)C(=O)N(C)[C@@H](CC(C)C)C(=O)N(C)[C@@H](C(C)C)C(=O)N1C | 1.2
* C/C=C/C[C@@H](C)[C@@H](O)[C@H]1C(=O)N[C@@H](CC)C(=O)N(C)[C@H](CO)C(=O)N(C)[C@@H]([C@H](C)COC)C(=O)N[C@@H](C(C)C)C(=O)N(C)[C@@H](CC(C)C)C(=O)N[C@@H](C)C(=O)N[C@H](C)C(=O)N(C)[C@@H](CC(C)C)C(=O)N(C)[C@@H](CC(C)C)C(=O)N(C)[C@@H](C(C)C)C(=O)N1C [Compound 3.2.3] (cyclo(A[dA][NMeL][NMeL][NMeV][MeBmt][Abu][dNMeS][NMeVal(4-OMe,3S)]V[NMeL])) | 7
* C/C=C/C[C@@H](C)[C@@H](O)[C@H]1C(=O)N[C@@H](CC)C(=O)N(C)[C@H](C)C(=O)N(C)[C@@H]([C@H](C)CN2CCN(C(C)=O)CC2)C(=O)N[C@@H](C(C)C)C(=O)N(C)[C@@H](CC(C)C)C(=O)N[C@@H](C)C(=O)N[C@H](C)C(=O)N(C)[C@@H](CC(C)C)C(=O)N(C)[C@@H](CC(C)C)C(=O)N(C)[C@@H](C(C)C)C(=O)N1C [Compound 2.5.23] (cyclo(A[dA][NMeL][NMeL][NMeV][MeBmt][Abu][dNMeA][X29]V[NMeL])) | 0.7
* C/C=C/C[C@@H](C)[C@@H](O)[C@H]1C(=O)N[C@@H](CC)C(=O)N(C)[C@H](C)C(=O)N(C)[C@@H]([C@H](C)CN2CCC3(CC2)OCCO3)C(=O)N[C@@H](C(C)C)C(=O)N(C)[C@@H](CC(C)C)C(=O)N[C@@H](C)C(=O)N[C@H](C)C(=O)N(C)[C@@H](CC(C)C)C(=O)N(C)[C@@H](CC(C)C)C(=O)N(C)[C@@H](C(C)C)C(=O)N1C [Compound 2.5.28] (cyclo(A[dA][NMeL][NMeL][NMeV][MeBmt][Abu][dNMeA][X35]V[NMeL])) | 0.8
* C/C=C/C[C@@H](C)[C@@H](O)[C@H]1C(=O)N[C@@H](CC)C(=O)N(C)[C@H](C)C(=O)N(C)[C@@H]([C@@H](C)CN2CCN(CCOC)CC2)C(=O)N[C@@H](C(C)C)C(=O)N(C)[C@@H](CC(C)C)C(=O)N[C@@H](C)C(=O)N[C@H](C)C(=O)N(C)[C@@H](CC(C)C)C(=O)N(C)[C@@H](CC(C)C)C(=O)N(C)[C@@H](C(C)C)C(=O)N1C [Compound 2.17.4] (cyclo(A[dA][NMeL][NMeL][NMeV][MeBmt][Abu][dNMeA][X19]V[NMeL])) | 0.5
* C/C=C/C[C@@H](C)[C@@H](O)[C@H]1C(=O)N[C@@H](CC)C(=O)N(C)[C@H](C)C(=O)N(C)[C@@H]([C@H](C)COC(=O)N2CCN(C)CC2)C(=O)N[C@@H](C(C)C)C(=O)N(C)[C@@H](CC(C)C)C(=O)N[C@@H](C)C(=O)N[C@H](C)C(=O)N(C)[C@@H](CC(C)C)C(=O)N(C)[C@@H](CC(C)C)C(=O)N(C)[C@@H](C(C)C)C(=O)N1C [Compound 2.5.9] (cyclo(A[dA][NMeL][NMeL][NMeV][MeBmt][Abu][dNMeA][X5]V[NMeL])) | 0.5
* C/C=C/C[C@@H](C)[C@@H](O)[C@H]1C(=O)N[C@@H](CC)C(=O)N(C)[C@H](C)C(=O)N(C)[C@@H]([C@H](C)CCN2CC(OC)C2)C(=O)N[C@@H](C(C)C)C(=O)N(C)[C@@H](CC(C)C)C(=O)N[C@@H](C)C(=O)N[C@H](C)C(=O)N(C)[C@@H](CC(C)C)C(=O)N(C)[C@@H](CC(C)C)C(=O)N(C)[C@@H](C(C)C)C(=O)N1C [Compound 2.18.5] (cyclo(A[dA][NMeL][NMeL][NMeV][MeBmt][Abu][dNMeA][X71]V[NMeL])) | 0.6
* C/C=C/C[C@@H](C)[C@@H](O)[C@H]1C(=O)N[C@@H](CC)C(=O)N(C)[C@H](C)C(=O)N(C)[C@@H]([C@H](C)COCC(=O)N2CCN(C(C)C)CC2)C(=O)N[C@@H](C(C)C)C(=O)N(C)[C@@H](CC(C)C)C(=O)N[C@@H](C)C(=O)N[C@H](C)C(=O)N(C)[C@@H](CC(C)C)C(=O)N(C)[C@@H](CC(C)C)C(=O)N(C)[C@@H](C(C)C)C(=O)N1C [Compound 2.6.4] (cyclo(A[dA][NMeL][NMeL][NMeV][MeBmt][Abu][dNMeA][X44]V[NMeL])) | 1.1

Exercise: What measured CypB Kd goes with C/C=C/C[C@@H](C)[C@@H](O)[C@H]1C(=O)N[C@@H](CC)C(=O)N(C)[C@H](C)C(=O)N(C)[C@@H]([C@H](C)CCOC)C(=O)N[C@@H](C(C)C)C(=O)N(C)[C@@H](CC(C)C)C(=O)N[C@@H](C)C(=O)N[C@H](C)C(=O)N(C)[C@@H](CC(C)C)C(=O)N(C)[C@@H](CC(C)C)C(=O)N(C)[C@@H](C(C)C)C(=O)N1C [Compound 2.13] (cyclo(A[dA][NMeL][NMeL][NMeV][MeBmt][Abu][dNMeA][X2]V[NMeL])) ?
Solution: 0.8
